Provenance of the data: the Kinase Knowledgebase extract (Sharma et al. 2016)

Record set of IC50 for target or system PIK3CA (human) (UniProt P42336).

Consider the reported IC50 for these molecules:
Cc1ccc2ncnc(N3CCOc4ccc(-c5cnc6nc(N)[nH]c6c5)cc4C3)c2c1
≤ 10 nM
CC[C@H]1CCc2c(ncnc2N2CCOc3ccc(-c4cnc(N)c(S(=O)(=O)N5C[C@@H]6C[C@H]5CN6)c4)cc3C2)C1
10 to 50 nM
CC1(C)CCc2ncnc(N3CCOc4ccc(-c5cnc(N)c(S(=O)(=O)NCC(F)(F)F)c5)cc4C3)c2C1
50 to 250 nM

INPUT: Entry `Cc1nc(CN(C)C)nc(N2CCOc3ccc(-c4cnc5sc(N)nc5c4)cc3C2)c1Cl` , system PIK3CA (human) (UniProt P42336): what IC50 was measured?
OUTPUT: 10 to 50 nM

INPUT: Queued: `CN(C)Cc1nc2c(c(N3CCOc4ccc(-c5cnc(Cl)c(NS(C)(=O)=O)c5)cc4C3)n1)CC(C)(C)CC2`
OUTPUT: ≤ 10 nM

INPUT: Queued: `Cc1nc2ccc(-c3ccc4c(c3)CN(c3ncnc5c3CC(C)(C)CC5)CCO4)cc2[nH]1`
OUTPUT: 10 to 50 nM

INPUT: Queued: `Cc1nc2ncc(-c3ccc4c(c3)CN(c3nc(CN5CC[C@H](F)C5)nc5c3CC(C)(C)CC5)CCO4)cc2[nH]1`
OUTPUT: 10 to 50 nM

INPUT: Queued: `COC(=O)Nc1nc2ccc(-c3ccc4c(c3)CN(c3ccncn3)CCO4)cc2[nH]1`
OUTPUT: 250 to 1000 nM
